TGT: human chemokine receptor 2 isoform B (Homo sapiens)
Sequence (P41597 1-360 isoform P41597-2): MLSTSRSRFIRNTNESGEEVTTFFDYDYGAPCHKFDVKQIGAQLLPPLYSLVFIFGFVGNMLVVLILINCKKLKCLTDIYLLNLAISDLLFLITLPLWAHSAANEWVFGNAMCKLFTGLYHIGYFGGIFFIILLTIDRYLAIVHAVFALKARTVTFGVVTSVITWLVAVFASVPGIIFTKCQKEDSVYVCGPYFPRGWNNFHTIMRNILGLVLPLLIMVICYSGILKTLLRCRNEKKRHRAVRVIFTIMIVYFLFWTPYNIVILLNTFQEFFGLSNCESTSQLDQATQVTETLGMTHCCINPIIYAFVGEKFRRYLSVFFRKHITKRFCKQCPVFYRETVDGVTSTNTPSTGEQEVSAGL
TEST PROTOCOL: Calcium mobilization assay (FLIPR, CHOK1-CCR2B-A5 cells, 20 nM MCP-1)
MEASUREMENT CONTEXT: Ca mobilisation assay, CCR2, antagonist activity vs 20 nM MCP-1
ENDPOINT: IC50 (µM)

// worked examples, IC50 included
O=C(/C=C/c1ccc(F)c(Cl)c1)N1CCC(=O)N(C[C@@H](O)CN2CC[C@H](CO)[C@H](O)C2)CC1 (mixture of isomers) [Example 337]: 0.071
CC1(CO)CCCCN1CCCCN1CCN(C(=O)/C=C/c2ccc(Cl)c(Cl)c2)CCC1=O (racemic) [Example 447]: 0.092

1: O=C(/C=C/c1ccc(Cl)c(Cl)c1)N1CCC(=O)N(CCCCN2CCC3(CCCO3)CC2)CC1 (racemic) [Example 467]
2: CC1(CO)CCN(CCCCN2CCN(C(=O)C=Cc3ccc(Cl)c(Cl)c3)CCC2=O)CC1O (stereo not shown) [Example 473]
Incoming: Identify the item whose IC50 is the smaller number: 1 or 2 Record your answer as the label of the chosen record.
Outgoing: 2
